Values were extracted from ChEMBL document CHEMBL3868609.

procedure text: AUC (0 to 24 hrs) in BALB/c athymic mouse xenografted with bicalutamide-resistant human CWR22-BMSLD1 cells at 78 mg/kg, po
Assay type: ADME, organism-based
Parameters: time < 24 hr, dose 78 mg/kg, route oral
setup conditions: in vivo
property name: AUC(0-t) at 24 h

Fill in: AUC(0-t) at 24 h of C[C@@]12[C@@H](CN(c3ccc(C#N)c(C(F)(F)F)c3)S1(=O)=O)[C@H]1C[C@H](O)[C@@H]2C1 is ___
> 2 µM·h

Do the same for CNC(=O)[C@@]12[C@@H](CN(c3ccc(C#N)c(C(F)(F)F)c3)S1(=O)=O)[C@H]1C[C@H](F)[C@@H]2C1 please
0.0031 µM·h

Do the same for C[C@@]12[C@@H](CN(c3ccc(C#N)c(C(F)(F)F)c3)S1(=O)=O)[C@H]1C[C@H](F)[C@@H]2C1 please
> 2 µM·h

Do the same for CNC(=O)[C@@]12[C@@H]3CC[C@@H](C3)[C@@H]1CN(c1ccc(C#N)c(C(F)(F)F)c1)S2(=O)=O please
> 2 µM·h

Do the same for C[C@@]12[C@H]3C[C@H]([C@H](O)C3)[C@@H]1CN(c1ccc(C#N)c(C(F)(F)F)c1)S2(=O)=O please
> 2 µM·h

Do the same for N#Cc1ccc(N2C[C@H]3[C@H]4CC[C@H](C4)[C@@]3(C(N)=O)S2(=O)=O)cc1C(F)(F)F please
> 2 µM·h
